Each entry below carries its reported Mean % WT Binding.
# target of assay: human CD33 A219S (human, UniProt P20138 18-364)
# Sequence (P20138 18-364 A219S limits assumed): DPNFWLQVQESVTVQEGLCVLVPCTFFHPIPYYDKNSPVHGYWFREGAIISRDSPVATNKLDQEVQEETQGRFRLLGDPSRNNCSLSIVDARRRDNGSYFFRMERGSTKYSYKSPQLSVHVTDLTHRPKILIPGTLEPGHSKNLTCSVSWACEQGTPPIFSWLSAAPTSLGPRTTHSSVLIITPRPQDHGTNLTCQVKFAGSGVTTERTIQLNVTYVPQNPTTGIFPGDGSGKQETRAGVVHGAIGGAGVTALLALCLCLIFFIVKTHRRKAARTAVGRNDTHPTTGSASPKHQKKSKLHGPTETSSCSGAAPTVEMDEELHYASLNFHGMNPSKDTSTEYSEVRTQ
# assay protocol: alanine scan, flow cytometry, HEK293-T;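 note: antibody binding to each alanine-substituted CD33 mutant expressed transiently in HEK293-T, read as fluorescence minus background, mean of duplicates, relative to wild-type CD33 set as 100%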
Value expressed in %; do not type the unit.

Below, 3 binders whose answers are already recorded.
>>> numeric_value("Refmab #4 (antibody, V domains shown, In the alanine scan antibodies were used as IgG or Fab) VH: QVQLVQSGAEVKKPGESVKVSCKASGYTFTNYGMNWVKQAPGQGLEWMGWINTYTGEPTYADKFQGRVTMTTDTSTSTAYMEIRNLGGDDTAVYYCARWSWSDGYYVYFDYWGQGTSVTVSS VL: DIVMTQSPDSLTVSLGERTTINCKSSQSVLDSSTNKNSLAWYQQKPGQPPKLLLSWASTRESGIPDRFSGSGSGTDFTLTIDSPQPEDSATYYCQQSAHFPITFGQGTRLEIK")
112
>>> numeric_value("Refmab #1 (antibody, V domains shown, In the alanine scan antibodies were used as IgG or Fab; also called hP67.6) VH: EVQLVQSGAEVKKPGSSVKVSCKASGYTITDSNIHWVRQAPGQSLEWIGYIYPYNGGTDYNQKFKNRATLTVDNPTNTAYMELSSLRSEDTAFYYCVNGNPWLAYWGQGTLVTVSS VL: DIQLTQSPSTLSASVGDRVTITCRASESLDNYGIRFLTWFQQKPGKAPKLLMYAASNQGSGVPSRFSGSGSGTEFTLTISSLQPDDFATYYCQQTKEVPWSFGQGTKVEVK")
104
>>> numeric_value("Refmab #3 (antibody, V domains shown, In the alanine scan antibodies were used as IgG or Fab) VH: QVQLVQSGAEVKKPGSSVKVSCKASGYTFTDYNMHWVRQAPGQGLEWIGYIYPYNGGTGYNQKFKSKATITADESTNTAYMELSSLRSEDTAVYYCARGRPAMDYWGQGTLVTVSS VL: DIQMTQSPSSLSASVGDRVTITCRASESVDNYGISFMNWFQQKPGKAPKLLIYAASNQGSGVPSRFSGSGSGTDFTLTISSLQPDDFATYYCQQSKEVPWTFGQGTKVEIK")
113

// next item, Mean % WT Binding requested
Q: I would be grateful if you could share the reported Mean % WT Binding for Refmab #2 (antibody, V domains shown, In the alanine scan antibodies were used as IgG or Fab) VH: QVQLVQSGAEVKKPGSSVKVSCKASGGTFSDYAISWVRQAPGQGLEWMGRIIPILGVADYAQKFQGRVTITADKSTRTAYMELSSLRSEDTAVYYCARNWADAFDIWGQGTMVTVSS VL: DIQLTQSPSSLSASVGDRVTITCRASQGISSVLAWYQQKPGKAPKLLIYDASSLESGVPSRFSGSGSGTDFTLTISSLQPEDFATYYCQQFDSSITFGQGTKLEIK .
A: 117
